Origin of measurements: patent US7138361B2

Tested on: morningglory (Ipomoea hederacea)
EXPERIMENTAL DETAILS: Test C preemergence
Assay type: in vivo
CONDITION SET: preemergence, Rate 62 g/ha, scale 0 to 100
READOUT TYPE: Plant response rating, Morningglory

query: Please report Plant response rating, Morningglory for the following compound: CCCOc1cc(N2CCC(n3ccc(C(C)(C)C)n3)C2=O)ccc1C (centres unmarked)
result: 0

query: Please report Plant response rating, Morningglory for the following compound: CCCC(C)c1ccn(C2CCN(c3cccc(C(F)(F)F)c3)C2=O)n1 (centres unmarked)
result: 0

query: Please report Plant response rating, Morningglory for the following compound: CC(C)(C)c1ccn(C2CCN(c3cccc(I)c3)C2=O)n1 (centres unmarked)
result: 10

query: Please report Plant response rating, Morningglory for the following compound: CCC(C)c1ccn(C2CCN(c3ccc(Br)c(OC)c3)C2=O)n1 (centres unmarked)
result: 90

query: Please report Plant response rating, Morningglory for the following compound: CCOc1cc(N2CCC(n3ccc(C(C)(C)C)n3)C2=O)ccc1C (centres unmarked)
result: 90
